system: LXRa:RXRa (NR concentration 270 nM, RXRa partner concentration 90 nM); test: PBM binding z-score (relative to random genomic background probes); higher = stronger binding; sequences stand for … in GC…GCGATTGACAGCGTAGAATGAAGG
Quantity Kind: PBM binding z-score
I'd appreciate a reply containing only the number, no unit.

| Residues | Assayed System | PBM binding z-score |
| --- | --- | --- |
| TCATATAGGTAGACAGGTGAAAGTCCGTAAGTTA | LXRa:RXRa (NR concentration 270 nM, RXRa partner concentration 90 nM) | 1.11 |
| TCTCGGTGGACACGAAAGGTCAGAGCTCGACATC | LXRa:RXRa (NR concentration 270 nM, RXRa partner concentration 90 nM) | 3.58 |
| CCTAGTAGGCCAGGGTCACTCAAGCATTTCGCTT | LXRa:RXRa (NR concentration 270 nM, RXRa partner concentration 90 nM) | 1.56 |
| TAGCCTCGGTCAGATCGGGCCAGTATACGCTATA | LXRa:RXRa (NR concentration 270 nM, RXRa partner concentration 90 nM) | -0.383 |
| TCTGCTAGGTCAGTTGGTCCGCTAACGAGCTGCC | LXRa:RXRa (NR concentration 270 nM, RXRa partner concentration 90 nM) | 0.595 |

## Input Let me know recorded PBM binding z-score for ATACCAAGTTGATCGTGAGGTCGTTGATACTAAC , thanks.
## Output 1.03
